All figures here come from paper PMC8659243.

Assay: Cytotoxicity against non-malignant HPLF cells, MTT method, 48 h
Assay type: cell-based
Conditions: human, periodontal ligament fibroblasts (HPLF)
The molecules listed here are annotated with their log10(CC50 at 48 h).
QUANTITY KIND: log10(CC50 at 48 h) (log10 of the value in µM)

[
  {
    "MOLECULE": "COc1cc(/C=C2\\CN(C(=O)CCN3CCC(=NO)CC3)C/C(=C\\c3cc(OC)c(OC)c(OC)c3)C2=O)cc(OC)c1OC",
    "log10(CC50 at 48 h)": 0.72
  },
  {
    "MOLECULE": "O=C1/C(=C/c2ccc(O)cc2)CN(C(=O)CCN2CCC(=NO)CC2)C/C1=C\\c1ccc(O)cc1",
    "log10(CC50 at 48 h)": 1.95
  },
  {
    "MOLECULE": "C[N+]1(CCC(=O)N2C/C(=C\\c3ccc([N+](=O)[O-])cc3)C(=O)/C(=C/c3ccc([N+](=O)[O-])cc3)C2)CCC(=NO)CC1 (stereo not shown)",
    "log10(CC50 at 48 h)": 0.41
  },
  {
    "MOLECULE": "COc1ccc(/C=C2\\CN(C(=O)CC[N+]3(C)CCC(=NO)CC3)C/C(=C\\c3ccc(OC)cc3)C2=O)cc1 (stereo not shown)",
    "log10(CC50 at 48 h)": 1.21
  },
  {
    "MOLECULE": "C[N+]1(CCC(=O)N2C/C(=C\\c3ccc(F)cc3)C(=O)/C(=C/c3ccc(F)cc3)C2)CCC(=NO)CC1 (stereo not shown)",
    "log10(CC50 at 48 h)": 0.96
  },
  {
    "MOLECULE": "Cc1ccc(/C=C2\\CN(C(=O)CC[N+]3(C)CCC(=NO)CC3)C/C(=C\\c3ccc(C)cc3)C2=O)cc1 (stereo not shown)",
    "log10(CC50 at 48 h)": 0.92
  },
  {
    "MOLECULE": "C[N+]1(CCC(=O)N2C/C(=C\\c3ccc(Cl)c(Cl)c3)C(=O)/C(=C/c3ccc(Cl)c(Cl)c3)C2)CCC(=NO)CC1 (stereo not shown)",
    "log10(CC50 at 48 h)": 0.33
  },
  {
    "MOLECULE": "N[C@@H](Cc1ccc(N(CCCl)CCCl)cc1)C(=O)O [Melphalan, reference compound]",
    "log10(CC50 at 48 h)": 2.29
  },
  {
    "MOLECULE": "COc1cc(/C=C2\\CN(C(=O)CC[N+]3(C)CCC(=NO)CC3)C/C(=C\\c3cc(OC)c(OC)c(OC)c3)C2=O)cc(OC)c1OC (stereo not shown)",
    "log10(CC50 at 48 h)": 0.12
  },
  {
    "MOLECULE": "C[N+]1(CCC(=O)N2C/C(=C\\c3ccccc3)C(=O)/C(=C/c3ccccc3)C2)CCC(=NO)CC1 (stereo not shown)",
    "log10(CC50 at 48 h)": 1.39
  },
  {
    "MOLECULE": "COc1cccc2c1C(=O)c1c(O)c3c(c(O)c1C2=O)C[C@@](O)(C(=O)CO)C[C@@H]3O[C@H]1C[C@H](N)[C@H](O)[C@H](C)O1 [Doxorubicin, reference compound]",
    "log10(CC50 at 48 h)": 0.99
  },
  {
    "MOLECULE": "O=C1/C(=C/c2ccccc2)CN(C(=O)CCN2CCC(=NO)CC2)C/C1=C\\c1ccccc1",
    "log10(CC50 at 48 h)": 1.16
  },
  {
    "MOLECULE": "O=C1/C(=C/c2ccc(F)cc2)CN(C(=O)CCN2CCC(=NO)CC2)C/C1=C\\c1ccc(F)cc1",
    "log10(CC50 at 48 h)": 0.99
  },
  {
    "MOLECULE": "O=C1/C(=C/c2ccc([N+](=O)[O-])cc2)CN(C(=O)CCN2CCC(=NO)CC2)C/C1=C\\c1ccc([N+](=O)[O-])cc1",
    "log10(CC50 at 48 h)": 0.49
  },
  {
    "MOLECULE": "O=C1/C(=C/c2ccc(Cl)cc2)CN(C(=O)CCN2CCC(=NO)CC2)C/C1=C\\c1ccc(Cl)cc1",
    "log10(CC50 at 48 h)": 0.90
  },
  {
    "MOLECULE": "C[N+]1(CCC(=O)N2C/C(=C\\c3ccc(Cl)cc3)C(=O)/C(=C/c3ccc(Cl)cc3)C2)CCC(=NO)CC1 (stereo not shown)",
    "log10(CC50 at 48 h)": 0.62
  },
  {
    "MOLECULE": "O=C1/C(=C/c2ccc(Cl)c(Cl)c2)CN(C(=O)CCN2CCC(=NO)CC2)C/C1=C\\c1ccc(Cl)c(Cl)c1",
    "log10(CC50 at 48 h)": 0.59
  },
  {
    "MOLECULE": "COc1ccc(/C=C2\\CN(C(=O)CCN3CCC(=NO)CC3)C/C(=C\\c3ccc(OC)cc3)C2=O)cc1",
    "log10(CC50 at 48 h)": 1.08
  },
  {
    "MOLECULE": "Cc1ccc(/C=C2\\CN(C(=O)CCN3CCC(=NO)CC3)C/C(=C\\c3ccc(C)cc3)C2=O)cc1",
    "log10(CC50 at 48 h)": 0.90
  }
]

----------
The compounds listed here are annotated with their log10 CC50.
Test system: HSC-4 cells
Experiment: Cytotoxicity against HSC-4 cells, MTT method, 48 h
Type: cell-based, human
Conditions: Homo sapiens, HSC-4; concentration required to kill 50% of the cells; 48 h, MTT; read-out: CC50 HSC-4
QUANTITY KIND: log10 CC50 (log10 of the value in nM)

[
  {
    "COMPOUND": "C[N+]1(CCC(=O)N2C/C(=C\\c3ccccc3)C(=O)/C(=C/c3ccccc3)C2)CCC(=NO)CC1 (stereo not shown)",
    "TESTED SYSTEM": "HSC-4 cells",
    "log10 CC50": 2.76
  },
  {
    "COMPOUND": "C[N+]1(CCC(=O)N2C/C(=C\\c3ccc(F)cc3)C(=O)/C(=C/c3ccc(F)cc3)C2)CCC(=NO)CC1 (stereo not shown)",
    "TESTED SYSTEM": "HSC-4 cells",
    "log10 CC50": 2.32
  },
  {
    "COMPOUND": "Cc1ccc(/C=C2\\CN(C(=O)CCN3CCC(=NO)CC3)C/C(=C\\c3ccc(C)cc3)C2=O)cc1",
    "TESTED SYSTEM": "HSC-4 cells",
    "log10 CC50": 2.63
  },
  {
    "COMPOUND": "O=C1/C(=C/c2ccccc2)CN(C(=O)CCN2CCC(=NO)CC2)C/C1=C\\c1ccccc1",
    "TESTED SYSTEM": "HSC-4 cells",
    "log10 CC50": 2.64
  },
  {
    "COMPOUND": "O=C1/C(=C/c2ccc(O)cc2)CN(C(=O)CCN2CCC(=NO)CC2)C/C1=C\\c1ccc(O)cc1",
    "TESTED SYSTEM": "HSC-4 cells",
    "log10 CC50": 4.29
  },
  {
    "COMPOUND": "COc1ccc(/C=C2\\CN(C(=O)CC[N+]3(C)CCC(=NO)CC3)C/C(=C\\c3ccc(OC)cc3)C2=O)cc1 (stereo not shown)",
    "TESTED SYSTEM": "HSC-4 cells",
    "log10 CC50": 2.82
  },
  {
    "COMPOUND": "O=C1/C(=C/c2ccc([N+](=O)[O-])cc2)CN(C(=O)CCN2CCC(=NO)CC2)C/C1=C\\c1ccc([N+](=O)[O-])cc1",
    "TESTED SYSTEM": "HSC-4 cells",
    "log10 CC50": 1.95
  }
]

----------
Test system: Ca9-22 cells
Experiment: Cytotoxicity against Ca9-22 cells, MTT method, 48 h
Assay type: cell-based, human
Conditions: average CC50 towards HGF, HPLF, HPC divided by CC50 against Ca9-22
Assign MET to entries whose SI Ca9-22 meets or exceeds 20; assign NOT MET to the rest.

[
  {
    "COMPOUND": "C[N+]1(CCC(=O)N2C/C(=C\\c3ccc(F)cc3)C(=O)/C(=C/c3ccc(F)cc3)C2)CCC(=NO)CC1 (stereo not drawn)",
    "CATEGORY": "MET"
  },
  {
    "COMPOUND": "C[N+]1(CCC(=O)N2C/C(=C\\c3ccccc3)C(=O)/C(=C/c3ccccc3)C2)CCC(=NO)CC1 (stereo not drawn)",
    "CATEGORY": "MET"
  },
  {
    "COMPOUND": "O=C1/C(=C/c2ccc(O)cc2)CN(C(=O)CCN2CCC(=NO)CC2)C/C1=C\\c1ccc(O)cc1",
    "CATEGORY": "NOT MET"
  },
  {
    "COMPOUND": "C[N+]1(CCC(=O)N2C/C(=C\\c3ccc(Cl)cc3)C(=O)/C(=C/c3ccc(Cl)cc3)C2)CCC(=NO)CC1 (stereo not drawn)",
    "CATEGORY": "MET"
  },
  {
    "COMPOUND": "COc1cccc2c1C(=O)c1c(O)c3c(c(O)c1C2=O)C[C@@](O)(C(=O)CO)C[C@@H]3O[C@H]1C[C@H](N)[C@H](O)[C@H](C)O1 [Doxorubicin, reference compound]",
    "CATEGORY": "NOT MET"
  }
]
